Assayed target: anti-A004 antibody (ERK1 PET)
Assay info: peptide competition assay in 6% BSA
Where no end group is shown, it is not given here.
Recorded endpoint: pIC50
A value of pIC50 is the negative decimal logarithm of a concentration given in moles per litre.

If you can, please state the reported pIC50 value of Ac-ITVEEALAHPYLEQC [A004 peptide (ERK1), Ac-…] . 7.60
